Source of measurements: ChEMBL document CHEMBL1137288

# Protocol Description: Selectivity index, IC50 for L6 cells/ IC50 for Trypanosoma brucei rhodesience
# Assay type: functional
Answer each item with its documented Ratio IC50.
Answers are plain numbers.

>>> measured_number("COc1ccc(C2CC3(N4CCCC4)CC(O)C2C(c2ccc(OC)cc2)C3)cc1 (stereo not given)")
2.35

Batch: Ratio IC50 for all items listed.
1. COc1ccc(C2CC3(N4CCCCC4)CC(O)C2C(c2ccc(OC)cc2)C3)cc1 (stereo not given)
2. OC1CC2(N3CCCCC3)CC(c3ccccc3)C1C(c1ccccc1)C2 (stereo not given)
3. O=C1CC2(N3CCCCC3)CC(c3ccccc3)C1C(c1ccccc1)C2 (stereo not given)
4. CN(C)C12CC(=O)C(C(c3ccccc3)C1)C(c1ccccc1)C2 (stereo not given)
5. O/N=C1\CC2(N3CCCCC3)CC(c3ccc(Cl)cc3)C1C(c1ccc(Cl)cc1)C2 (stereo not given)
6. OC1CC2(N3CCCC3)CC(c3ccc(Cl)cc3)C1C(c1ccc(Cl)cc1)C2 (stereo not given)
7. CN(C)C12CC(O)C(C(c3ccc(Cl)cc3)C1)C(c1ccc(Cl)cc1)C2 (stereo not given)
8. c1ccc(C2CC3(N4CCCC4)CCNC2C(c2ccccc2)C3)cc1 (stereo not given)

1. 3.13
2. 6.99
3. 5.78
4. 2.46
5. 2.62
6. 9.7
7. 27.41
8. 103.8

I am curious: what Ratio IC50 value has been reported for O/N=C1\CC2(N3CCCC3)CC(c3ccccc3)C1C(c1ccccc1)C2 (stereo not given) ? 7.31

* * *

# System: Trypanosoma brucei rhodesiense
# Protocol Description: Antiprotozoal activity against Trypanosoma brucei rhodesiense STIB900
# Type: functional, organism-based
pIC50: −log10 of the molar value.
Classification field: Fulfilled = pIC50 at or over 5; Not fulfilled = pIC50 under 5.

>>> class_name("Clc1ccc(C2CC3(N4CCCC4)CCNC2C(c2ccc(Cl)cc2)C3)cc1 (centres undefined)")
"Fulfilled"
>>> class_name("CN(C)C12CCNC(C(c3ccc(Cl)cc3)C1)C(c1ccc(Cl)cc1)C2 (centres undefined)")
"Fulfilled"
>>> class_name("Clc1ccc(C2CC3(N4CCCCC4)CCNC2C(c2ccc(Cl)cc2)C3)cc1 (centres undefined)")
"Fulfilled"
>>> class_name("OC1CC2(N3CCCCC3)CC(c3ccc(Cl)cc3)C1C(c1ccc(Cl)cc1)C2 (centres undefined)")
"Fulfilled"
>>> class_name("O/N=C1/CC2(N3CCCC3)CC(c3ccc(Cl)cc3)C1C(c1ccc(Cl)cc1)C2 (centres undefined)")
"Fulfilled"
>>> class_name("O/N=C1\\CC2(N3CCCCC3)CC(c3ccccc3)C1C(c1ccccc1)C2 (centres undefined)")
"Fulfilled"
>>> class_name("O=C1CC2(N3CCCCC3)CC(c3ccccc3)C(N1)C(c1ccccc1)C2 (centres undefined)")
"Not fulfilled"
>>> class_name("CN(C)C12CC(O)C(C(c3ccccc3)C1)C(c1ccccc1)C2 (centres undefined)")
"Fulfilled"

Please tell me: is the compound COc1ccc(C2CC3(N4CCCCC4)CC(O)C2C(c2ccc(OC)cc2)C3)cc1 (centres undefined) at or over 5 in terms of pIC50? Not fulfilled

pIC50 >= 5 for CN(C)C12CC(=O)NC(C(c3ccccc3)C1)C(c1ccccc1)C2 (centres undefined) ? Not fulfilled

Please check the record COc1ccc(C2CC3(N4CCCC4)CC(=O)C2C(c2ccc(OC)cc2)C3)cc1 (centres undefined) and state if its pIC50 is at or above 5. Fulfilled

Is the recorded value of pIC50 equal to or greater than 5 for this compound? Cc1ccc(C(=O)Nc2ccc(S(=O)(=O)O)c3cc(S(=O)(=O)O)cc(S(=O)(=O)O)c23)cc1NC(=O)c1cccc(NC(=O)Nc2cccc(C(=O)Nc3cc(C(=O)Nc4ccc(S(=O)(=O)O)c5cc(S(=O)(=O)O)cc(S(=O)(=O)O)c45)ccc3C)c2)c1 Fulfilled

Confirm if pIC50 reported for the compound O=C1CC2(N3CCCC3)CC(c3ccccc3)C(N1)C(c1ccccc1)C2 (centres undefined) is 5 or above. Not fulfilled

Is reported pIC50 greater than or equal to 5 here: O/N=C1\CC2(N3CCCCC3)CC(c3ccc(Cl)cc3)C1C(c1ccc(Cl)cc1)C2 (centres undefined) Fulfilled

Please check the record COc1ccc(C2CC3(N(C)C)CC(O)C2C(c2ccc(OC)cc2)C3)cc1 (centres undefined) and state if its pIC50 is at or above 5. Fulfilled
